Answer each item with its documented relative integration efficiency (log2).
- Test system: VchCAST RNA-guided transposition machinery (E. coli BL21(DE3) host, lacZ target)
- assayRemarks: relative integration efficiency (T-LR orientation) vs wild-type transposon end (log2 (normalized fold change)); transposon end mutated: right end (5 bp flank + 75 bp right end); higher = more efficient transposition
Answers are plain numbers.

Some solved entries appear below for comparison.
sequenceCode: ACATTTGTTGATACAACCATAATTTGATAATTACACCCATAATATGATAATTATCACACCCATAATATGATATTGCCTCTGATCATAGTCAGACCAACATTGCTACGACCCGTATTCGCACCGACAC
experimentalTarget: VchCAST RNA-guided transposition machinery (E. coli BL21(DE3) host, lacZ target)
relative integration efficiency (log2): -0.228

sequenceCode: ACATTTGTTGATACAACCATAAAATGATAATTACACCCATAAATTGATCCTTATCACACCCATAAATTGATATTGCCTCTGATCATAGTCAGACCAACATTGCTACGACCCGTATTCGCACCGACAC
experimentalTarget: VchCAST RNA-guided transposition machinery (E. coli BL21(DE3) host, lacZ target)
relative integration efficiency (log2): -0.418

sequenceCode: ACATTTGTTGATACAACCATAAGTTGATATTTTCACCCATAAATTGATAATTATCACACCCATAAATTGATAATTACTCTGATCATAGTCAGACCAACATTGCTACGACCCGTATTCGCACCGACAC
experimentalTarget: VchCAST RNA-guided transposition machinery (E. coli BL21(DE3) host, lacZ target)
relative integration efficiency (log2): 2.73

sequenceCode: ACATTTGTTGATACAACCATATATTGATATCTCCAACCATATATTGATATCTCTCAGTGGGTATTTAACTATAACGCTCTGATCATAGTCAGACCAACATTGCTACGACCCGTATTCGCACCGACAC
experimentalTarget: VchCAST RNA-guided transposition machinery (E. coli BL21(DE3) host, lacZ target)
relative integration efficiency (log2): 2.41

Alright, here's another sequence for you.
Q: # relative integration efficiency (log2) lookup, item ACATTTGTTGATACAACCATAAAATGATAATTACACCCATAAATTGATAATTATCACACCCATAAATTGATATTGCCTCTGATCATAAATATATAAATTAATTATTAAATTAGTCAGGCACCGACAC
A: 1.54

###

- Test system: VchCAST RNA-guided transposition machinery (E. coli BL21(DE3) host, lacZ target)
- assayRemarks: relative integration efficiency (T-RL orientation) vs wild-type transposon end (log2 (normalized fold change)); transposon end mutated: right end (5 bp flank + 75 bp right end); higher = more efficient transposition
Entry flag: 1 if relative integration efficiency (log2) reaches -2; -1 if it does not.

For orientation, consider the following solved cases.
sequenceCode: ACATTTGTTGATACAACCATATATTGATATCTCCAACCATAAAATGATAATTATCACACCCATAAATTGATATTGCCTCTGATCATAGTCAGACCAACATTGCTACGACCCGTATTCGCACCGACAC
assignedLabel: 1
--
sequenceCode: ACATTTGTTGATACAACCATAAAATGATTATTACACCCATAAATTGATTATTATCACACCCATAAATTGATTTTGCCTCTGATCATAGTCAGACCAACATTGCTACGACCCGTATTCGCACCGACAC
assignedLabel: 1
--
sequenceCode: ACATTTGTTGATAGAACCATTTAATGATAATAACACCCATAAAATGATAATTATCACACCCAATTTAACTATAACGCTCTGATCATAGTCAGACCAACATTGCTACGACCCGTATTCGCACCGACAC
assignedLabel: -1

--- query ---
Q: // inclusive: relative integration efficiency (log2) at least -2? input: ACATTTGTTGATACAACCATAAAATGATAATTACCACCCCTACATTGATAATTATCACACCCATTTAACTATAACGCTCTGATCATAGTCAGACCAACATTGCTACGACCCGTATTCGCACCGACAC
A: -1

Data credit: the supplement of paper PMC10201428
